test system: Caco-2; experiment: cell viability relative to DMSO; higher = less toxic; conditions: 72 h; 10 nM
# key: entry, value: cell viability
Numeric only. Scale: %

Here are 2 compounds together with their reported answers.
# compound, target, observed.value
rows = [
    ("CC(=O)NCCCCCC(=O)O [acexamic-acid]", "Caco-2", 99.2),
    ("CC(=O)NCCc1c[nH]c2ccccc12 [N-acetyltryptamine]", "Caco-2", 94.7),
]

Lookup: Item CSc1ccc(C(=O)/C=C/c2cc(C)c(OC(C)(C)C(=O)O)c(C)c2)cc1 [elafibranor] with Caco-2 - cell viability?
Found: 92.5

Lookup: Item CCCCCCCCOc1ccccc1C(=O)Nc1ccc(C(=O)OCC[N+](C)(CC)CC)cc1 [otilonium] with Caco-2 - cell viability?
Found: 99.4

Lookup: Item O=C(/C=C\n1cnc(-c2cc(C(F)(F)F)cc(C(F)(F)F)c2)n1)NNc1cnccn1 [selinexor] with Caco-2 - cell viability?
Found: 87.9
